experiment: Preliminary solubility assessment in solvents; format: physicochemical; settings: toluene, organic solvent or mixture, thermodynamic from solid, Toluene, 20 vol, RT; read-out: Solubility assessment 20 vol
readout_label: solubility

Request the reported solubility associated with O=C(O)c1cccc(C#Cc2ccc(COC3CCOCC3)cc2)c1-c1ccc2cc[nH]c2c1 [Amorphous (I) free acid]
< 50 mg/mL

====

experiment: Preliminary solubility assessment in solvents; format: physicochemical; details: nitromethane, organic solvent or mixture, thermodynamic from solid, Nitromethane, 20 vol, RT; read-out: Solubility assessment 20 vol
readout_label: solubility

# get_value(readout='solubility', item= O=C(O)c1cccc(C#Cc2ccc(COC3CCOCC3)cc2)c1-c1ccc2cc[nH]c2c1 [Amorphous (I) free acid] )
< 50 mg/mL

====

Experiment: Preliminary solubility assessment in solvents
Type: physicochemical
Details: ethyl acetate, organic solvent or mixture, thermodynamic from solid, Ethyl Acetate, 10 vol, RT; read-out: Solubility assessment 10 vol
Experimental: Amorphous (I) free acid (post washing, ca. 20 mg) was dissolved or suspended in a range of solvent systems (using 10 or 20 volumes) at RT. Solutions were placed in a fridge at 4° C. overnight. If no solid was obtained, the solution was then allowed to evaporate at RT. Suspensions were matured between RT-50° C. heat-cool cycles (8 h per cycle) for up to 7 days. Solids were analyzed by XRPD.
readout_label: solubility

GET /values?readout=solubility&item= O=C(O)c1cccc(C#Cc2ccc(COC3CCOCC3)cc2)c1-c1ccc2cc[nH]c2c1 [Amorphous (I) free acid]
> 100 mg/mL

====

test: Preliminary solubility assessment in solvents; format: physicochemical; details: methanol, organic solvent or mixture, thermodynamic from solid, Methanol, 10 vol, RT; read-out: Solubility assessment 10 vol
readout_label: solubility

Can you share its solubility? I mean this compound: O=C(O)c1cccc(C#Cc2ccc(COC3CCOCC3)cc2)c1-c1ccc2cc[nH]c2c1 [Amorphous (I) free acid]
> 100 mg/mL

====

test: Preliminary solubility assessment in solvents; type: physicochemical; details: acetone, organic solvent or mixture, thermodynamic from solid, Acetone, 10 vol, RT; read-out: Solubility assessment 10 vol
readout_label: solubility

Returns the measured solubility for the input compound. Input: O=C(O)c1cccc(C#Cc2ccc(COC3CCOCC3)cc2)c1-c1ccc2cc[nH]c2c1 [Amorphous (I) free acid]
> 100 mg/mL

====

experiment: Preliminary solubility assessment in solvents; type: physicochemical; settings: 2-propanol, organic solvent or mixture, thermodynamic from solid, 2-Propanol, 10 vol, RT; read-out: Solubility assessment 10 vol
readout_label: solubility

Reported solubility, molecule O=C(O)c1cccc(C#Cc2ccc(COC3CCOCC3)cc2)c1-c1ccc2cc[nH]c2c1 [Amorphous (I) free acid] : ____
> 100 mg/mL

====

experiment: Preliminary solubility assessment in solvents; type: physicochemical; details: water, thermodynamic from solid, Water, 20 vol, RT; read-out: Solubility assessment 20 vol
readout_label: solubility

So what does the record say about solubility for O=C(O)c1cccc(C#Cc2ccc(COC3CCOCC3)cc2)c1-c1ccc2cc[nH]c2c1 [Amorphous (I) free acid] ?
< 50 mg/mL

====

test: Preliminary solubility assessment in solvents; type: physicochemical; settings: acetonitrile, organic solvent or mixture, thermodynamic from solid, Acetonitrile, 10 vol, RT; read-out: Solubility assessment 10 vol
readout_label: solubility

Return reported solubility; argument: O=C(O)c1cccc(C#Cc2ccc(COC3CCOCC3)cc2)c1-c1ccc2cc[nH]c2c1 [Amorphous (I) free acid]
> 100 mg/mL
